Assign aptazyme ON/OFF ratio to each entry below.
B1: Pistol ribozyme (parent)
chain: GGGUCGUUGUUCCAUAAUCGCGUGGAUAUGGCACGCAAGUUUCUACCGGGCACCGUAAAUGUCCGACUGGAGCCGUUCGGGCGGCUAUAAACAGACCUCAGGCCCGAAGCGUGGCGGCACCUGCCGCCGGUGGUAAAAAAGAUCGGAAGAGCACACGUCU

# Variants of: B1
# EXPERIMENT DESCRIPTION: aptazyme ON/OFF ratio, guanine; higher = stronger switching; co-transcriptional cleavage with and without guanine
Output: the number by itself.

**Query** Find the recorded aptazyme ON/OFF ratio belonging to U7A U8G G9A U11G C12A C13G and report it.
**Result** 1.39

**Query** Please look up its aptazyme ON/OFF ratio: U7G G9A U10G U11C
**Result** 1.04

**Query** Request the reported aptazyme ON/OFF ratio associated with U7G U8G G9C U11G C12G C13G
**Result** 1.24

**Query** Name the reported aptazyme ON/OFF ratio value associated with the variant U7A U8A C12G C13A
**Result** 1.2

**Query** // returns reported aptazyme ON/OFF ratio for input U8A G9C U10G U11G C12U C13U
**Result** 1.11

**Query** Sample U7C U10G U11G C13U — what was its aptazyme ON/OFF ratio?
**Result** 1.22

**Query** Reported aptazyme ON/OFF ratio for U7G G9C U10G U11A C12G : what is it?
**Result** 1.28

**Query** Item U7C U8A G9U U10C U11A C12G C13U has what recorded aptazyme ON/OFF ratio?
**Result** 1.13

**Query** Sample U7C U8G G9C U10A U11C C12U C13A — what was its aptazyme ON/OFF ratio?
**Result** 1.11

**Query** Request the reported aptazyme ON/OFF ratio associated with U7G G9U U11C C13U
**Result** 1.65

**Query** Please give the measured aptazyme ON/OFF ratio for this variant: U7G U8A G9C U10C U11A C12G C13A
**Result** 1.03

**Query** What value of aptazyme ON/OFF ratio has been recorded for this entry: U7A U8G U11G C13G
**Result** 1.24

**Query** Using the record for U8A G9U U10C U11C C12A C13A , report its aptazyme ON/OFF ratio.
**Result** 1.01

**Query** I would be grateful if you could share the reported aptazyme ON/OFF ratio for U7C U8A G9A U10C U11C C12A C13U .
**Result** 1.09

**Query** Report aptazyme ON/OFF ratio for U7G U8C G9A U10G U11C C12G C13U please.
**Result** 1.18

**Query** Please report the recorded aptazyme ON/OFF ratio for U7G G9A U10A U11G C12G C13U .
**Result** 1.22

**Query** // aptazyme ON/OFF ratio lookup, key: U7A U11A C12G
**Result** 1.2

**Query** Endpoint output: aptazyme ON/OFF ratio of U7G U8A G9C U10G U11G C13A . Value?
**Result** 1.19

**Query** Need aptazyme ON/OFF ratio of U7C G9A U10C C12G C13A , thanks.
**Result** 1.26

**Query** Return reported aptazyme ON/OFF ratio; argument: U7A U8A G9A U11C C12U C13G
**Result** 1.21

**Query** For U7C U8C G9C C12G C13U , what is its reported aptazyme ON/OFF ratio?
**Result** 1.07

**Query** Look up aptazyme ON/OFF ratio for this variant: U8C U11C C12G C13U
**Result** 1.36

**Query** Recorded aptazyme ON/OFF ratio of U7G G9U U10A C12U C13A , please.
**Result** 1.06

**Query** Report aptazyme ON/OFF ratio for U7A U10G U11A C12A C13U please.
**Result** 1.08

**Query** GET /values?readout=aptazyme ON/OFF ratio&item= U7C G9U U11A C12U C13U
**Result** 1.2

**Query** I would be grateful if you could share the reported aptazyme ON/OFF ratio for U8G G9A U10A U11G C12G .
**Result** 1.48

**Query** Item under review: U7C U8G U10C C12U C13G . Reported aptazyme ON/OFF ratio?
**Result** 1.3

**Query** Name the recorded aptazyme ON/OFF ratio for U7C U8A G9U U10A U11G C12U C13G .
**Result** 1.16

**Query** I have this variant here, U7G U8C G9C U10G C13G , and I need its recorded aptazyme ON/OFF ratio.
**Result** 1.26

**Query** Using the record for U7A U8A U10G C12G C13G , report its aptazyme ON/OFF ratio.
**Result** 0.977

**Query** GET /values?readout=aptazyme ON/OFF ratio&item= U7G G9A U10A U11G C13A
**Result** 1.09

**Query** Any idea what aptazyme ON/OFF ratio was measured for U7G U8C U10A U11G C12A C13G ?
**Result** 1.13

**Query** Request the reported aptazyme ON/OFF ratio associated with U7C U8A G9A U10C U11A C13U
**Result** 1.16

**Query** What does the record list as aptazyme ON/OFF ratio for U7C G9A U11C ?
**Result** 1.05

**Query** So what does the record say about aptazyme ON/OFF ratio for U7G U8G G9U U10A U11G ?
**Result** 1.27

**Query** Could you tell me which aptazyme ON/OFF ratio is on file for U7C U8A U11C C12U C13U ?
**Result** 1.19

**Query** Fill in the blank: the reported aptazyme ON/OFF ratio of U7G U8C U10C U11G C12U C13U is ____.
**Result** 1.31

**Query** Given U7C G9C U10A U11A C12G C13A , state its recorded aptazyme ON/OFF ratio.
**Result** 1.08

**Query** Given the entry U7G U10G C12A C13A , report its measured aptazyme ON/OFF ratio.
**Result** 1.09

**Query** Need aptazyme ON/OFF ratio of G9A U10G U11A C12U C13A , thanks.
**Result** 1.21

**Query** // query aptazyme ON/OFF ratio value for entry U7G U8G G9A U10A U11G C12U
**Result** 1.22

**Query** Need aptazyme ON/OFF ratio of U7A G9A U10G U11G C12A , thanks.
**Result** 1.06

**Query** Using the record for U7C U8C G9C U10A U11A , report its aptazyme ON/OFF ratio.
**Result** 1.44

**Query** Look up aptazyme ON/OFF ratio: U7C U8A G9C U10G U11G C12U C13G
**Result** 1.1

**Query** // aptazyme ON/OFF ratio lookup, key: U10G U11C C12G C13U
**Result** 1.48

**Query** Name the reported aptazyme ON/OFF ratio value associated with the variant U7A G9C U10A U11G C12G C13G
**Result** 1.12

// data source = the RNAGym collection of RNA variant scans (doi:10.1021/acssynbio.7b00057)
